Data origin: patent US20210255193A1

Each entry below carries its reported isoTOP-ABPP reactivity ratio at lysine Q12931_K699.
# tested-target: TRAP1 Heat shock protein 75 kDa, mitochondrial (Homo sapiens, UniProt Q12931)
# Construct: isoTOP-ABPP experiments performed in cell lysates (in vitro); endogenous in cells; host or cells: soluble proteome of human cancer cell lines (MDA-MB-231, Ramos, Jurkat)
# Sequence (Q12931 60-704): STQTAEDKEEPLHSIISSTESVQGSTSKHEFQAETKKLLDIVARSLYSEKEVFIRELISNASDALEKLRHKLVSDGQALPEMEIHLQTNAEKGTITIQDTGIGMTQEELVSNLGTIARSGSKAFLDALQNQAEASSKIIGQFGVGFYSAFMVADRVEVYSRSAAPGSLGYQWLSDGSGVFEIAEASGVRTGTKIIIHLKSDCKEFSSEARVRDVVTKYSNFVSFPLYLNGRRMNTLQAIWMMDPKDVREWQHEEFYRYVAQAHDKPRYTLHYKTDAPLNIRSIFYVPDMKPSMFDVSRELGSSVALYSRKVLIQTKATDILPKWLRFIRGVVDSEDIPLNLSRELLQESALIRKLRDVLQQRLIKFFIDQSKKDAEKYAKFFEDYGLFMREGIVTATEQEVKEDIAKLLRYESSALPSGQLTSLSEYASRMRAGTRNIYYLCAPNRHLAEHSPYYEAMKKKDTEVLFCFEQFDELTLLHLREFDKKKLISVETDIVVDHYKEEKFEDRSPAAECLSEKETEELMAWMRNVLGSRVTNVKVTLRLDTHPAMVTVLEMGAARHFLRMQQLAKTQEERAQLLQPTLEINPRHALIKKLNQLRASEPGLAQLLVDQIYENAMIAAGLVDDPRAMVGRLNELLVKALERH
# method-summary: competitive isoTOP-ABPP
# Type: binding
# details: 50 uM, 231 sol, in vitro
experimental-readout: isoTOP-ABPP reactivity ratio at lysine Q12931_K699

* O=C(CCc1cn(-c2ccccc2)nc1-c1ccccc1)Oc1ccc([N+](=O)[O-])cc1[N+](=O)[O-] | 2.2
* O=C(Oc1ccc([N+](=O)[O-])cc1[N+](=O)[O-])C(c1ccccc1)c1ccccc1 [fragment 30, 2,4-Dinitrophenyl 2,2-diphenylacetate] | 4.1
* CCn1cc(C(=O)Oc2c(F)c(F)c(F)c(F)c2F)c(=O)c2ccc(C)nc21 | 0.9
* O=C(Oc1c(F)c(F)c(F)c(F)c1F)C1CCN(C(=O)OCc2ccccc2)CC1 | 0.9
* O=C(Oc1c(F)c(F)c(F)c(F)c1F)c1ccc2ccccc2n1 | 0.9
* O=C(Oc1ccc([N+](=O)[O-])cc1[N+](=O)[O-])c1cc(C(F)(F)F)cc(C(F)(F)F)c1 | 1.0
* Cn1cc(CC(=O)Oc2ccc([N+](=O)[O-])cc2[N+](=O)[O-])c2ccccc21 | 2.0
* COc1cc(CCC(=O)Oc2ccc([N+](=O)[O-])cc2[N+](=O)[O-])cc(OC)c1OC | 1.5
* O=C(CN1C(=O)c2ccccc2C1=O)Oc1c(F)c(F)c(F)c(F)c1F | 0.7

---

# tested-target: SMPD1 Sphingomyelin phosphodiesterase (Homo sapiens, UniProt P17405)
# Construct: isoTOP-ABPP experiments performed in cell lysates (in vitro); endogenous in cells; host or cells: soluble proteome of human cancer cell lines (MDA-MB-231; Ramos and Jurkat also prepared)
# Sequence (P17405 47-631): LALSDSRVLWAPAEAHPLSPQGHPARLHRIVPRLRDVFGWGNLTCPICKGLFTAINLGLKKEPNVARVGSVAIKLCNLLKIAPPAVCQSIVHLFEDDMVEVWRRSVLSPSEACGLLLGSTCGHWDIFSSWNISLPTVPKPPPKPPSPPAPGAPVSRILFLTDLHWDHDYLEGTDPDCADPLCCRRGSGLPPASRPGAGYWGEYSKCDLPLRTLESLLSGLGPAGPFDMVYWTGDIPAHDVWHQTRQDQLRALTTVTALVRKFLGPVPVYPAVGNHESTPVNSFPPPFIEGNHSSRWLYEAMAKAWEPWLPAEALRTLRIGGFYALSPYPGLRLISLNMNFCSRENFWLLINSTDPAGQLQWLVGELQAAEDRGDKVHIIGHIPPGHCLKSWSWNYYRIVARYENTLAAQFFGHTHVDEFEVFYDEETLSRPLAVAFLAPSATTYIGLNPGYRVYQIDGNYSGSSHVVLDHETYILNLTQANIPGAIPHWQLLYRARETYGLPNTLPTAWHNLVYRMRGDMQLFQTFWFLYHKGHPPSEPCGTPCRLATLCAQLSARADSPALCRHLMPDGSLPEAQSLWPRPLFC
# method-summary: competitive isoTOP-ABPP
# Assay type: binding
# details: 50 uM, in vitro, sol, 231
experimental-readout: isoTOP-ABPP ratio (R) at liganded lysine P17405_K118

• CC(C)(C)OC(=O)NCCCC(=O)Oc1ccc([N+](=O)[O-])cc1[N+](=O)[O-] = 1.5
• O=C(CC12CC3CC(CC(C3)C1)C2)Oc1ccc([N+](=O)[O-])cc1[N+](=O)[O-] = 1.2
• O=C(Oc1ccc([N+](=O)[O-])cc1[N+](=O)[O-])c1ccc(Oc2ccccc2)cc1 [fragment 39, 2,4-Dinitrophenyl 4-phenoxybenzoate] = 0.8
• O=C(Oc1ccc([N+](=O)[O-])cc1[N+](=O)[O-])c1ccc2ccccc2n1 = 1.4

---

# tested-target: PFKP 6-phosphofructokinase type C (Homo sapiens)
# Construct: isoTOP-ABPP experiments performed in cell lysates (in vitro); endogenous in cells
# Sequence (Q01813 whole entry): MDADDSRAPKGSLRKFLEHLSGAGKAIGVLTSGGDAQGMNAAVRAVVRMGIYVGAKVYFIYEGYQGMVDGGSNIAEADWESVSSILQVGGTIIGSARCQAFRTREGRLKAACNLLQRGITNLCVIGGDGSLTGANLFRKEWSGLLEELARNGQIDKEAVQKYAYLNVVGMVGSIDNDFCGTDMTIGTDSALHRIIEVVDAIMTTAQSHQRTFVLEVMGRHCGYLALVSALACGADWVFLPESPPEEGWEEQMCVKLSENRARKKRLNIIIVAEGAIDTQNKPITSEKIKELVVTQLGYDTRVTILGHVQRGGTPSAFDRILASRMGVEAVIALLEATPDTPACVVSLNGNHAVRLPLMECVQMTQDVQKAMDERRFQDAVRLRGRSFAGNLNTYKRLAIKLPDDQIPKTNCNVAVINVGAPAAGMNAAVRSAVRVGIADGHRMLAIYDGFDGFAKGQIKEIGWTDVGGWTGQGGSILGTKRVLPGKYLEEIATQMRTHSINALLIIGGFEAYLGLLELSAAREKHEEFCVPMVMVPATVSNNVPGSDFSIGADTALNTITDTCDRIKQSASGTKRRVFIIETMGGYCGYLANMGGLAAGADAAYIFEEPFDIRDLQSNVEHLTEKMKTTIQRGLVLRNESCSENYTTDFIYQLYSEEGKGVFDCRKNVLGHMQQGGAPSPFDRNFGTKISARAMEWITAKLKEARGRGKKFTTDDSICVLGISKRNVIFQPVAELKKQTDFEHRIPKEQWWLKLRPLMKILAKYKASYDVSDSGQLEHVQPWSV
# method-summary: competitive isoTOP-ABPP
# Type: binding
# Design: key: R = MS1 peak area ratio, DMSO (heavy) / compound-treated (light)
# details: 50 uM, 231 sol, in vitro
Each entry below carries its reported isoTOP-ABPP reactivity ratio at lysine Q01813_K688.
experimental-readout: isoTOP-ABPP reactivity ratio at lysine Q01813_K688

* O=C(CCc1coc2cc(F)ccc2c1=O)Oc1c(F)c(F)c(F)c(F)c1F [fragment 26] | 6.4
* O=C(Oc1c(F)c(F)c(F)c(F)c1F)C1CCN(C(=O)OCc2ccccc2)CC1 [fragment 24] | 2.5
* O=C(Oc1c(F)c(F)c(F)c(F)c1F)c1ccc2ccccc2n1 [fragment 25] | 15.6
* O=C(Oc1ccc([N+](=O)[O-])cc1[N+](=O)[O-])c1cc(C(F)(F)F)cc(C(F)(F)F)c1 [fragment 31] | 2.3
* O=C(CN1C(=O)c2ccccc2C1=O)Oc1c(F)c(F)c(F)c(F)c1F [fragment 27] | 20.0
* O=C(Oc1ccc([N+](=O)[O-])cc1[N+](=O)[O-])C(c1ccccc1)c1ccccc1 [fragment 30, 2,4-Dinitrophenyl 2,2-diphenylacetate] | 20.0
* COc1cc(CCC(=O)Oc2ccc([N+](=O)[O-])cc2[N+](=O)[O-])cc(OC)c1OC [fragment 33] | 20.0
* O=C(CCc1cn(-c2ccccc2)nc1-c1ccccc1)Oc1ccc([N+](=O)[O-])cc1[N+](=O)[O-] [fragment 29] | 12.8
* CCn1cc(C(=O)Oc2c(F)c(F)c(F)c(F)c2F)c(=O)c2ccc(C)nc21 [fragment 28] | 1.3
* Cn1cc(CC(=O)Oc2ccc([N+](=O)[O-])cc2[N+](=O)[O-])c2ccccc21 [fragment 32] | 12.6
